# run.description: SK-BR-3 cell growth inhibitors, pilot screen, 24 h, human (AID 572);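 further: compound exposure lasted between 18 and 24 h rather than exactly 24 h; 100% = carrier-treated control wells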
# condition: SK-BR-3 viability, CellTiter-Glo luminescence, at 10 µM, active compounds read low
viability less than 90% is fulfilled; viability greater than or equal to 90% is not fulfilled.

1) COc1cc(-c2nnc(SCc3c(F)cccc3Cl)o2)cc(OC)c1OC	fulfilled
2) O=C(Nc1ccccc1)c1ccc(NCC2CCCO2)c(S(=O)(=O)N2CCOCC2)c1 (configuration not stated)	fulfilled
3) CCOc1cc(C(=O)N2CCN(c3ccccc3)CC2)cc(OCC)c1OCC	not fulfilled
4) CC1CCN(S(=O)(=O)c2ccc(S(=O)(=O)NCC(=O)C(C)(C)C)cc2)CC1	not fulfilled
5) COc1ccc(-c2noc(CN(C(=O)C(C)(C)C)C(C)C)n2)cc1	not fulfilled
6) O=S(=O)(NCC1CCCO1)c1cccc(C(F)(F)F)c1 (configuration not stated)	not fulfilled

---

# assay.system: Receptor tyrosine-protein kinase erbB-2 (Homo sapiens) (UniProt P04626)
# Sequence (P04626 whole entry, looked up): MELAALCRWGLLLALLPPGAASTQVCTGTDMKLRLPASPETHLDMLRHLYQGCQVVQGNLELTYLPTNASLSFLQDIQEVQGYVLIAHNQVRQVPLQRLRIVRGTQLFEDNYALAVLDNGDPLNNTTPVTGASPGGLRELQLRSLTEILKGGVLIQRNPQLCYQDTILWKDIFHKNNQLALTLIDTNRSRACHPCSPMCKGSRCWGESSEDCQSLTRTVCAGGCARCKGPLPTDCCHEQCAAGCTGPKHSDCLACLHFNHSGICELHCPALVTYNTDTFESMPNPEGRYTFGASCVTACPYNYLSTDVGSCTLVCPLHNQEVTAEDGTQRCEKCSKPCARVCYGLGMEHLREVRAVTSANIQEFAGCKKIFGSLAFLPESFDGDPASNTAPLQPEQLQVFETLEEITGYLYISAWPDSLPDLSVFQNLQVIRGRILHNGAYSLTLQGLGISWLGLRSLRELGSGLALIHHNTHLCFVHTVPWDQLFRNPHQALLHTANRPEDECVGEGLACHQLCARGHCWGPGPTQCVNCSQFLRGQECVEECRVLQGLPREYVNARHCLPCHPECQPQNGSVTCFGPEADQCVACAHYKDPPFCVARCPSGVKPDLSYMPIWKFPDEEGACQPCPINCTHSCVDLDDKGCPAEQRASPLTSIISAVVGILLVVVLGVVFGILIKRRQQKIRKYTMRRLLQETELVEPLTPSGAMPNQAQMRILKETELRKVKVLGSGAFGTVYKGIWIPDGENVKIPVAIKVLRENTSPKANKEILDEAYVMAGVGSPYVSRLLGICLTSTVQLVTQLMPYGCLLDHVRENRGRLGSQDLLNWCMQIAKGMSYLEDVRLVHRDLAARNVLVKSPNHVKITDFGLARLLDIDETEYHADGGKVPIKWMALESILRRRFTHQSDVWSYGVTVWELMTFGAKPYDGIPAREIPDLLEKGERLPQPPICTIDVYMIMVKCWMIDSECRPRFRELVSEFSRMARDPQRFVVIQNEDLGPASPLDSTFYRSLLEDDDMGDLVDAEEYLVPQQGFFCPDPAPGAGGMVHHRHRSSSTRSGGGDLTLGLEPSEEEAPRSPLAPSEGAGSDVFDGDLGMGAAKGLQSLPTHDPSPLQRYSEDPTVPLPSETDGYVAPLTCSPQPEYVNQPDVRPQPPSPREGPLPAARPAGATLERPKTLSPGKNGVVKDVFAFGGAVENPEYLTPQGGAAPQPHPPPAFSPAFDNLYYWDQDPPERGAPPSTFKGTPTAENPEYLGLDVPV
# run.description: reducers of endogenous Her2 protein level, primary screen, SKBR3 breast tumor cells, AlphaScreen, ATP viability (AID 461);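 further: lower value means less Her2 protein in the cells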
# condition: 18-24 h, at 10 µM, active compounds read low
Active and inactive are the calls of the source.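 How the source made its calls: active means Her2 level under about 52% in both replicate screens, with viability over 70% of control (limit read from the data); inconclusive means Her2 under the limit in one screen only, or viability under 70%; inactive means Her2 level above the set limit.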
Reported Her2 level values for a set of molecules
value.kind: Her2 level

1) Cn1c(=O)[nH]c(=O)c2[nH]c(NCCCN3CCOCC3)nc21	85.5% (inactive)
2) O=C(O)CCCC(=O)Nc1ccc(Br)cc1C(=O)O	90% (inactive)
3) COc1ccc(-c2nnc(SCC#N)o2)cc1	91.5% (inactive)
4) O=C(O)c1cccc(NS(=O)(=O)c2ccc3nnn(O)c3c2)c1	87% (inactive)
5) O=S(=O)(Nc1cccnc1)c1cc(Cl)ccc1Cl	96% (inactive)
6) c1cc(-c2nc3ccccc3o2)nc(-c2nc3ccccc3o2)c1	94.5% (inactive)
7) O=C(Cn1cnc2c(oc3ccccc32)c1=O)N1CCN(c2ccccc2)CC1	91.5% (inactive)
8) CCN1C(=O)N(CC)C2C1N(C(C)=O)C(=O)N2C(C)=O (centres undefined)	102% (inactive)
9) CC(Sc1nnnn1-c1ccccc1)C(=O)Nc1ccc(Cl)cn1 (centres undefined)	89% (inactive)
10) CNC(=O)Nc1cccc(C(F)(F)F)c1	82.5% (inactive)
11) CCOC(=O)C(C)(C)Sc1nc2c(cnn2-c2ccc(C)cc2)c(=O)[nH]1	100% (inactive)
12) CN(c1ccccc1C(N)=O)S(=O)(=O)c1ccccc1	86% (inactive)
13) COc1ccc(Cn2nnnc2C(c2cc3cc(C)cc(C)c3[nH]c2=O)N2CCOCC2)cc1 (centres undefined)	94.5% (inactive)
14) CCOC(=O)C1CCCN(Cc2nc(N)nc(Nc3ccc(C)cc3)n2)C1 (centres undefined)	78% (inactive)

---

# run.description: reversal of MRP1-mediated doxorubicin resistance, pilot screen, H69AR cells, doxorubicin co-treatment (AID 601)
# condition: H69AR cells + 2 uM doxorubicin, CellTiter-Glo, 72 h; at 10 µM; active compounds read high
value.kind: differential viability (reversal) (%)

1) CCCCc1noc2c1/C(=N\O)CC(c1ccccc1)C2 (stereo unspecified)	-0.815
2) O=C(O)C1CCCCC1C(=O)NCCc1ccccc1 (stereo unspecified)	7.15
3) CC(=O)N(C(C)=O)c1cccc2c(N(C(C)=O)C(C)=O)cccc12	-2.88
4) COc1ccccc1-c1cn[nH]c(=S)n1	3.25
5) COc1ccc(Cl)cc1Nc1nc(C)cc(=O)[nH]1	2.12
6) CC(C)(C)n1nnnc1CN1CCN(C2CCCC2)CC1	3.04
7) O=C(O)c1c[nH]c2ccc(S(=O)(=O)N3CCN(c4ccc(F)cc4)CC3)cc2c1=O	10.9
8) CCOC(=O)CNC(=O)CSc1ncnc2c1cnn2Cc1ccccc1	10.3
9) COc1ccc(-n2c(SCC(=O)c3c(N)n(C)c(=O)n(C)c3=O)nc3ccccc32)cc1	12.6
10) COC(=O)c1sccc1NC(=O)c1csc(C)c1	2.06
11) Cn1c(SCC(=O)Nc2ccc3c(c2)oc2ccccc23)nnc1-c1ccccc1	-7.74
12) O=C(NCC(c1cccnc1)N1CCOCC1)c1ccco1 (stereo unspecified)	8.38
13) CCOC(=O)c1c(NC(=O)c2nn(CC)cc2Br)c(C#N)cn1-c1ccccc1	2.55
14) COc1ccc(S(=O)(=O)N2CN(Cc3ccco3)c3nc4ccccc4nc32)cc1	7.69
15) CCCCc1cc(=O)oc2cc(C)cc(OC(C)C(=O)O)c12 (stereo unspecified)	8.19
16) CC(=O)Nc1ccc(Oc2cc(C#N)c(C#N)cc2N2CCCCCC2)cc1	21.8
